Tested on: RXF 393
Assay: NCI tumour cell line growth inhibition, 48 h
Activity calls are given as the source filed them. Rule as the data show it: active = GI50 up to about 1.1 µM and inactive = higher.
Outcomes: active, inactive

COc1cccc(/C=C/C(=O)c2sc(C(N)=S)nc2C)c1O : inactive
COC(=O)CCc1cc(O)c2c(c1)C(C(=O)OC)C(c1ccc(O)c(O)c1)O2 (configuration not stated) : inactive
CCC1(CN(C)C)CC/C(=C\c2ccc3c(c2)OCO3)C1=O (configuration not stated) : inactive
CN(C)Cc1cc(C(=O)/C=C/c2ccc(F)cc2)cc(CN(C)C)c1O : inactive
C/C(=N\Nc1nc2ccccc2s1)c1ncccn1 : active
COc1nc(N=P(c2ccccc2)(c2ccccc2)c2ccccc2)cc(=O)[nH]1 : inactive
O=C(O)C(Cc1cccs1)C(=O)O : inactive
CC(=O)OC12C=CC(=O)N1c1ccccc1C(=O)O2 (configuration not stated) : inactive
CCOC(=O)c1nc2ccc(Cl)cc2c2c1CCO2 : inactive
COc1ccc(CCN2C(=O)C(=O)C(C(=O)c3ccccc3)C2c2ccccc2)cc1OC (configuration not stated) : inactive
COc1cc(/C=C2/C(=O)NC(Cc3cc(OC)c(OC)c(C)c3OC)C(=O)N2Cc2ccccc2)c(OC)c(C)c1OC (configuration not stated) : inactive
COc1cc(NCc2ccc3oc(=O)c(-c4ccccc4)nc3c2)cc(OC)c1OC : inactive
CN1N=C(c2ccncc2)OC1c1ccc(Cl)cc1Cl (configuration not stated) : inactive
COc1cc([C@@H]2c3cc4c(cc3[C@@H](Nc3ccc(Cl)cc3C(=O)c3ccccc3Cl)[C@H]3COC(=O)[C@H]23)OCO4)cc(OC)c1OC : active
Nc1n[nH]c2c(C(=O)Nc3ccc(Cl)cc3)c(N)n(N)c(=O)c12 : inactive
CCC(C)C(=O)c1c(O)c(C/C=C(\C)CCC=C(C)C)c(O)c2c(C(O)CC)cc(=O)oc12 (configuration not stated) : inactive
COP(=O)(CC(=O)C1OC(OCc2ccccc2)C(OCc2ccccc2)C(OCc2ccccc2)C1OCc1ccccc1)OC (configuration not stated) : inactive
CN(C)/C=N/CC(O)c1ccccc1 (configuration not stated) : inactive
CCCn1cnc2c(SCC(=O)O)nc(N)nc21 : inactive
C=C(Cl)C(Br)(CCl)CCC(Br)C(C)(C)Cl (configuration not stated) : inactive
Cc1c(Cl)c(S(N)(=O)=O)cc(S(N)(=O)=O)c1NC(=O)c1ccc(Cl)cc1 : inactive
CC(=O)C1C(=O)N(C(C)C)C[C@@H]2CCC(=O)C[C@H]12 (some centres not stated) : inactive
COC1/C=C(C)/C=C/C(C)/C=C/C(=O)OC(/C(C)=C/C=C(\C)CNC(=O)[C@H](CO)NC=O)C(C)/C=C/C=C/C(OC)CC/C=C(C)/C=C/C1 (some centres not stated) : active
CCCN1C(=O)CCC2=C1CCc1c2ccc(Cl)c1Cl : inactive
CC(=O)OCC1OC(Nc2ccc3nc(C)n(-c4ccccc4)c(=O)c3c2)C(OC(C)=O)C(OC(C)=O)C1OC(C)=O (configuration not stated) : inactive
NNC(=S)N/N=C(\C(=O)Nc1cccc(O)c1)C1C(=O)NC(=S)NC1=O : inactive
O=c1cc(NCc2ccncc2)[nH]c(=O)[nH]1 : inactive
Cc1cc(O)nc(NNC(C#N)c2ccc(O)cc2)n1 (configuration not stated) : inactive
O=C(CCCCCCCCC(=O)N1C(=O)CC(=O)N(c2ccc(Cl)cc2)C1=S)N1C(=O)CC(=O)N(c2ccc(Cl)cc2)C1=S : inactive
O=C(O)c1ccccc1/N=N/c1ccc2oc(=O)c(C(=O)Nc3ccccc3)cc2c1 : inactive
COc1ccc2cc(CNCCCCCCNCc3ccc4cc(OC)ccc4c3)ccc2c1 : inactive
CCOC(=O)CCc1c(C(=O)OCC)[nH]c(/C=C2/NC(=O)C(C)=C2CC)c1C : inactive

---

Tested on: SK-MEL-2
Test: NCI tumour cell line growth inhibition, 48 h
The source made the active and inactive calls. No stated cut-off is given here; in the data, active = GI50 up to about 1.1 µM and inactive = higher.
Outcomes: yes = active, no = inactive

CC1=NN(c2ccccc2)C(=O)C12[C@H](c1ccccc1)C2(C#N)C#N (stereo not given in full) : no
COc1cccc(C2c3cc4c(cc3OC(NNS(=O)(=O)c3ccc(C)cc3)C2C)OCO4)c1OC (stereo not given) : no
CC(=O)C1C(=O)N(C(C)C)C[C@@H]2CCC(=O)C[C@H]12 (stereo not given in full) : no
O=C(CCCl)NN=C1NCCCN1 : no
COc1cc(C[C@H]2C(=O)OC[C@@H]2Cc2ccc(OC)c(OC)c2)cc(OC)c1 : no
CN=C(n1ccnc1)n1ccnc1 : no
C1CSCCSCCCSCCSCCCSCCSCCCSCCSC1 : no
COc1ccc2c(c1)N=C(N)n1c(nc3ccccc31)S2 : no
COc1ccc(CNc2nc3cc(C(F)(F)F)ccc3nc2C(=O)O)cc1 : no
CC(=O)OC12C=CC(=O)N1c1ccccc1C(=O)O2 (stereo not given) : no
CSc1nc2c(c(=O)n1C)N=C(c1ccc(Cl)cc1)CC(c1ccccc1)N2 (stereo not given) : no
O=C(CCCCCCCCC(=O)N1C(=O)CC(=O)N(c2ccc(Cl)cc2)C1=S)N1C(=O)CC(=O)N(c2ccc(Cl)cc2)C1=S : no
O=C(O)C1NCCc2c1[nH]c1ccccc21 (stereo not given) : no
Cc1ccc(Cl)c2c(=O)c3ccc([N+](=O)[O-])cc3sc12 : no
CC(SC1=CC(=O)c2c(O)ccc(O)c2C1=O)C(=O)O (stereo not given) : no
COc1ccc2oc(-c3cccnc3)cc(=O)c2c1 : no
CC(CO)(CO)N1C(=O)C2C3C=CC(C3)C2C1=O (stereo not given) : no
BC(=O)NC(CC(C)C)C(=O)NC1c2ccsc2C(=O)C1O.CN(C)C (stereo not given) : no
COc1ccc(NC(=O)CC(=O)N/N=C/c2ccc(N(CCC#N)S(C)(=O)=O)cc2)cc1 : no
O=C(c1ccc(Cl)cc1)N(C(=S)N1CCN(c2ccccn2)CC1)C1CCCCC1 : no
O=C(c1c(F)c(F)c(F)c(F)c1F)n1c(=S)n(C(=O)c2c(F)c(F)c(F)c(F)c2F)c2ccccc21 : no
N#Cc1ccccc1C(Cl)(Cl)c1cnccn1 : no
O=C1C(=O)c2c(oc(=O)c3ccccc23)-c2ccccc21 : no
CCC1(CN(C)C)CC/C(=C\c2ccc3c(c2)OCO3)C1=O (stereo not given) : no
C/C(CC(O)(C(F)(F)F)C(F)(F)F)=N/Nc1ccc([N+](=O)[O-])cc1[N+](=O)[O-] : no
CN1CCN(c2nc3c(c(=O)n(C)c(=O)n3C)n2C)CC1 : no
CC1=NN(C(=O)CC(=O)Nc2cccc(C)c2)C(=O)C1/N=N/c1ccc(S(=O)(=O)CCOS(=O)(=O)O)cc1 (stereo not given) : yes
CC(C)c1nccn1Cc1ccc(Cl)cc1Cl : no
CCC(C)C(=O)c1c(O)c(C/C=C(\C)CCC=C(C)C)c(O)c2c(C(O)CC)cc(=O)oc12 (stereo not given) : no
C[S+](C)CCOC(=O)C(=[N+]=[N-])c1ccc([N+](=O)[O-])cc1 : no

---

Test system: CAKI-1
Test: NCI tumour cell line growth inhibition, 48 h
Calls of active or inactive are those of the source. No stated cut-off is given here; in the data, active = GI50 up to about 1.1 µM and inactive = higher.
property label: GI50

COc1cc(C=C2C(C)=NN(c3cccc(Cl)c3)C23C(Cl)C(=O)N3c2nc3ccccc3s2)ccc1O (stereo unspecified) : 26.3 µM (inactive)
C=CCCC(C)N(C(=O)OC(C)(C)C)S(=O)(=O)c1ccc(C)cc1 (stereo unspecified) : > 100 µM (inactive)
CCOC(=O)C(SCCO)C(C(=O)OCC)n1ccc(=O)[nH]c1=O (stereo unspecified) : 7.83 µM (inactive)
CNC1CC(n2cc(C)c(=O)[nH]c2=O)OC1CO (stereo unspecified) : > 100 µM (inactive)
Cc1c(C(=O)/C=C/c2c(Cl)cccc2Cl)c(=O)n(-c2ccccc2)n1C : 19 µM (inactive)
O=C(NCc1ccccc1Cl)c1c(O)c2ccccc2[nH]c1=O : 22.7 µM (inactive)
COc1ccc(C(c2ccc(C(C)C)cc(=O)c2O)c2c(O)cc3oc(-c4ccccc4)cc(=O)c3c2O)cc1 (stereo unspecified) : 9.04 µM (inactive)
COc1ccc2cc(CNCCCCCCNCc3ccc4cc(OC)ccc4c3)ccc2c1 : 1.38 µM (inactive)
COC(=O)Cc1cc(=O)oc2c1C(=O)CCC2 : > 100 µM (inactive)
CCn1c(SCC(=O)N/N=C/c2ccccc2)nc2ccccc2c1=O : 9.08 µM (inactive)
CCCN1C(=O)CCC2=C1CCc1c2ccc(Cl)c1Cl : 31.6 µM (inactive)
CC/C=C/C[C@H](O[Si](C)(C)C(C)(C)C)[C@H]1C[C@H]2O[C@H]([C@@H](O)C#C[Si](C)(C)C)C[C@H]2O1 : 11.3 µM (inactive)
COc1ccc(-c2oc3cc(-c4cc5oc(-c6ccc(OC)cc6)c(-c6ccc(OC)cc6)c5cc4OC)c(OC)cc3c2-c2ccc(OC)cc2)cc1 : > 100 µM (inactive)
NC(Cc1cc(I)c(O)c(I)c1)C(=O)O (stereo unspecified) : 45.4 µM (inactive)
CC(=O)C1CC(C)=CCC12C(=O)Nc1ccccc12 (stereo unspecified) : > 100 µM (inactive)
Cc1cc(C)c2c(=O)n(CN3CCN(c4ccccc4)CC3)sc2n1 : 21 µM (inactive)
